Test: Metabolic stability in human […] S9 fraction after 30 mins
Assay type: ADME
Details: read-out: Stability
Result type: remaining at 0.5 h (%)

{"Chem smiles": "O=c1[nH]c(N2CCC(c3ccccc3)CC2)c(Cc2ccccc2)c(=O)[nH]1", "Value observed": 94}

====

Recorded log10 Ki values for a group of compounds are listed next.
Biological target: Glucocorticoid receptor (Homo sapiens, UniProt P04150)
Sequence (P04150 whole entry): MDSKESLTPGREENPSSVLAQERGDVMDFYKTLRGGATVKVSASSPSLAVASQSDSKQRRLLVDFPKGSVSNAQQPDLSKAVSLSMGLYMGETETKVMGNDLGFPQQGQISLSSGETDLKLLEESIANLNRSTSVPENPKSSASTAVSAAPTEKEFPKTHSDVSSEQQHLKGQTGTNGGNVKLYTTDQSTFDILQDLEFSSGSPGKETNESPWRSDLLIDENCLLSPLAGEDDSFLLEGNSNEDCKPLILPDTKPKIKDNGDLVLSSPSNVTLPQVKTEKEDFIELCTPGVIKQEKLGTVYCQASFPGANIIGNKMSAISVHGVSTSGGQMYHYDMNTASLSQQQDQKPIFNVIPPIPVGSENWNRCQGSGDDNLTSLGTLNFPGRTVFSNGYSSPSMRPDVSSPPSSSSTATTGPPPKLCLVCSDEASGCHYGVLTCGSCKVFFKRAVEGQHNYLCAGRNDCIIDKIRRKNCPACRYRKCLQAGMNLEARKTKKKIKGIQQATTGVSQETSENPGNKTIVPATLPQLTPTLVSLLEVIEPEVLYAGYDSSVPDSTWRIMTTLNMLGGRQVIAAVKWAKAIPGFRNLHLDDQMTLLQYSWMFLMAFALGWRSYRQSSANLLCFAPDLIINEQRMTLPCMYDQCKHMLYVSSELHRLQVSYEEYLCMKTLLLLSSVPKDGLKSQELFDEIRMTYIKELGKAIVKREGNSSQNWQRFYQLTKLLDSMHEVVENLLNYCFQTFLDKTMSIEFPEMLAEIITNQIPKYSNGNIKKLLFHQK
Assay: Displacement of [3H]dexamethasone from human recombinant GR
Result type: log10 Ki (log10 of the value in nM)

{"Chem smiles": "Cn1c(=O)[nH]c(N2CCC(c3ccccc3)CC2)c(Cc2ccccc2)c1=O", "Result type": "log10 Ki", "Value observed": 1.30}
{"Chem smiles": "COc1ccccc1C1CCN(c2[nH]c(=O)[nH]c(=O)c2Cc2ccccc2)CC1", "Result type": "log10 Ki", "Value observed": 0.85}
{"Chem smiles": "Cn1c(=O)[nH]c(N2CCC(O)(Cc3ccccc3)CC2)c(Cc2ccccc2)c1=O", "Result type": "log10 Ki", "Value observed": 2.56}
{"Chem smiles": "O=c1[nH]c(N2CCC(c3ccccc3)CC2)c(Cc2ccccc2)c(=O)[nH]1", "Result type": "log10 Ki", "Value observed": 0.91}
{"Chem smiles": "O=c1[nH]c(N2CCC(Cc3ccccc3)CC2)c(Cc2ccccc2)c(=O)[nH]1", "Result type": "log10 Ki", "Value observed": 1.28}
{"Chem smiles": "COc1cccc(C2CCN(c3[nH]c(=O)[nH]c(=O)c3Cc3ccccc3)CC2)c1", "Result type": "log10 Ki", "Value observed": 0.96}
{"Chem smiles": "O=c1[nH]c(N2CCC(c3ccccc3)CC2)c(Cc2cccc(Br)c2)c(=O)[nH]1", "Result type": "log10 Ki", "Value observed": 1.15}
{"Chem smiles": "Cn1c(=O)[nH]c(N2CCC(Oc3ccccc3)CC2)c(Cc2ccccc2)c1=O", "Result type": "log10 Ki", "Value observed": 1.89}
{"Chem smiles": "Cn1c(=O)[nH]c(N2CCC(Cc3ccccc3)CC2)c(Cc2ccccc2Br)c1=O", "Result type": "log10 Ki", "Value observed": 1.52}
{"Chem smiles": "Cn1c(=O)[nH]c(N2CCC(O)CC2)c(Cc2cccc(C(F)(F)F)c2)c1=O", "Result type": "log10 Ki", "Value observed": 3.65}
{"Chem smiles": "O=c1[nH]c(N2CCC(c3ccccc3)CC2)c(Cc2cccc(Cl)c2)c(=O)[nH]1", "Result type": "log10 Ki", "Value observed": 0.96}
{"Chem smiles": "COc1ccc(C2CCN(c3[nH]c(=O)[nH]c(=O)c3Cc3ccccc3)CC2)cc1", "Result type": "log10 Ki", "Value observed": 1.65}
